Data origin, for the record: ChEMBL document CHEMBL1148568

# target_under_test: Protein kinase C gamma type (Homo sapiens, UniProt P05129)
pIC50: −log10 of the molar value.
readout_name: pIC50

Data point: `COc1cc(-c2ccc3c(c2)NC(=O)/C3=C\c2ccc[nH]2)ccc1O` ; pIC50 = < 4.30

Now consider the entry below.
Data point: `COc1cc(-c2ccc3c(c2)NC(=O)/C3=C\c2ncc[nH]2)ccc1O` ; pIC50 = < 4.30

###

# target_under_test: Serine/threonine-protein kinase Chk1 (Homo sapiens, UniProt O14757)
# Sequence (O14757 whole entry): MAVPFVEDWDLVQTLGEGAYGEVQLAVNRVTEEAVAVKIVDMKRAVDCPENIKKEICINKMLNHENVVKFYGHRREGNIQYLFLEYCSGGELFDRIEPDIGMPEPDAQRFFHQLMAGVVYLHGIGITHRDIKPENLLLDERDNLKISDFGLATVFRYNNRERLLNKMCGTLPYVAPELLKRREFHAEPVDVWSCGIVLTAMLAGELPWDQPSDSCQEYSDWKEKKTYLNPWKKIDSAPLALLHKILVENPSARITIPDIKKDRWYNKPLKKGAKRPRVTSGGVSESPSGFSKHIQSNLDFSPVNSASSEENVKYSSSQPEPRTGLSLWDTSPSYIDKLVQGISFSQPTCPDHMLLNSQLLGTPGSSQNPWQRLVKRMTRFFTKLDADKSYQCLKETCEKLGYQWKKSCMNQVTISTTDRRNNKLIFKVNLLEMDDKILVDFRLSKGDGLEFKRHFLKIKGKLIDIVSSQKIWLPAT
pIC50: −log10 of the molar value.
Please go through the items and note down their pIC50.

Solved entries (count: 2):
Data point: `COc1cc(-c2ccc3c(c2)/C(=C/c2cccc(OC)c2OC)C(=O)N3)ccc1O` ; pIC50 = < 4.30

Data point: `O=C1Nc2cc(-c3ccc(F)c(F)c3)ccc2/C1=C/c1cc[nH]c1` ; pIC50 = < 5.00

Now consider the entry below.
Data point: `COc1cc(-c2ccc3c(c2)NC(=O)/C3=C\c2[nH]c(C)cc2-c2ccccc2)ccc1O` ; pIC50 = < 5.00
